GI50 listing for selected compounds.
- Test system: UO-31
- measurementNotes: NCI tumour cell line growth inhibition, 48 h
Activity calls are given as the source filed them. Rule as the data show it: active = GI50 up to about 1.1 µM and inactive = higher.
resultType: GI50

1. CC1(C)CCC[C@]2(C)[C@@H]1CC[C@@]13O[C@@H]1C1=C(CO)C(=O)O[C@]14O[C@@H]4[C@@H]23; 6.05 µM (inactive)
2. O=C(COC(=O)c1cccc2c(=O)c3ccccc3[nH]c12)Nc1ccccc1; 22.2 µM (inactive)
3. O=[N+]([O-])c1ccc2nc(/C(=N/Nc3ccccc3)C(O)c3ccc(Cl)cc3Cl)c(O)nc2c1 (stereo unspecified); 78.9 µM (inactive)
4. CC(O)CCNC(=O)Nc1c(C(F)(F)F)cc(-c2ccccc2)[nH]c1=O (stereo unspecified); > 100 µM (inactive)
5. CC(C)=CCC/C(C)=C/C=C/C(C)=C/C1C[C@@]2(C(O)O1)[C@H](CCCO)/C(=C(/C)C=O)CC[C@]2(C)O (stereo partly specified); 17.3 µM (inactive)
6. CCCCOC(=O)NC(=O)c1cn(C2CCCCC2)c(=O)[nH]c1=O; 21.3 µM (inactive)
7. O=C1C(c2ccc([N+](=O)[O-])cc2)=[N+]([O-])c2ccccc21; 29.4 µM (inactive)
8. O=c1c(-c2ccc(Cl)cc2)nnc2n(Cc3ccccc3)c3ccccc3n12; 44.4 µM (inactive)
9. CCC(/C=C/c1ccccc1)=N\N=C(\C=C\c1ccccc1)CC; > 100 µM (inactive)
10. Cc1cc2c(c3nocc13)C(=O)c1ccccc1C2=O; > 100 µM (inactive)
11. C=C(CC(=O)Nc1ccc(C(=O)OC)o1)C(=O)OC; 20.6 µM (inactive)
12. O=C(O)C1CCN(Cc2oc(CO)cc(=O)c2O)C1 (stereo unspecified); > 100 µM (inactive)
13. N#C[BH2-][n+]1cn(C2CC(OP(=O)(O)OCC3OC(n4cnc5c(=O)[nH]c(N)nc54)CC3O)C(CO)O2)c2nc(N)[nH]c(=O)c21 (stereo unspecified); > 100 µM (inactive)
14. CN(C)C=O.O=C(Nc1nnn[nH]1)c1nc(O)cc(-c2ccccc2)n1; > 100 µM (inactive)
15. Cc1ccc2[nH]c(=N/c3ccccc3C)/c(=N\c3ccccc3C)[nH]c2c1; 19.4 µM (inactive)
16. CC1C2Cc3ccc(O)cc3C1(C)CCN2C (stereo unspecified); > 100 µM (inactive)
17. N#C/N=C1\NCCC(=O)N1CCc1c[nH]c2ccccc12; > 100 µM (inactive)
18. Cc1cc2c(cc1C)[n+]([O-])c(C#N)c(Cl)[n+]2[O-]; 12 µM (inactive)
19. O=C(O)C1=C(C(=O)Nc2ccc(NC(=O)C3=C(C(=O)O)C4C=CC3C4)cc2)C2C=CC1C2; > 100 µM (inactive)
20. COc1cc(C2c3cc4c(cc3[C@@H](OCCN)[C@H]3COC(=O)C23)OCO4)cc(OC)c1O (stereo partly specified); 4.09 µM (inactive)
21. N/C(=N\c1ccc(Cl)c(Cl)c1)c1ccccc1N; 24.2 µM (inactive)
22. NC1=C(c2nc(-c3ccccc3)cs2)C(c2ccco2)c2c(c3ccccc3oc2=O)O1 (stereo unspecified); > 100 µM (inactive)
23. C=CCOC(=O)Cn1ccc(=O)[nH]c1=O; > 100 µM (inactive)
24. Cc1c2cccc-2ccc2c1[nH]c1ccccc12; 1.63 µM (inactive)
25. CC(C(=O)NCNC(=O)c1ccccc1)C(=O)Nc1ccccc1 (stereo unspecified); > 100 µM (inactive)
26. CCCCCCCCCCCCOCC1(COCCCCCCCCCCCC)COC(c2ccc(N)cc2)OC1; > 100 µM (inactive)
27. Fc1ccc(/C(=N/Cc2ccccc2)N2CCOCC2)cc1; 67.5 µM (inactive)
28. COC(=O)C1=C(CCCCO[Si](C)(C)C(C)(C)C)NC(=O)N2[C@H](CCOCc3ccccc3)CC[C@@H]12; 43.9 µM (inactive)
29. CCOC(OC1=C(C#N)CCCC1)C(C)[Se]c1ccccc1 (stereo unspecified); 43.6 µM (inactive)
30. CCN(CC)CCCNc1nncc2cc3c([nH]c4ccccc43)c(C)c12; 12.1 µM (inactive)
31. CC(=O)N1c2ccccc2[C@H]2CCc3c([nH]c4ccccc34)[C@H]21; 6.31 µM (inactive)
32. CCc1cc(O)c(Cl)c(C)c1Cl; 19.1 µM (inactive)
33. CCOc1cc2c(cc1O)/C(=N/NS(=O)(=O)c1ccc(C)cc1)C[C@@H]1[C@@H]2CC[C@]2(C)[C@@H](O)CC[C@@H]12; 4.2 µM (inactive)
34. COc1cc([C@H]2c3cc4c(cc3[C@H](NCc3ccc([N+](=O)[O-])cc3)C3COC(=O)[C@H]32)OCO4)cc(OC)c1O (stereo partly specified); 1.79 µM (inactive)
35. O=c1cc2ccccc2nn1-c1ccccc1Cl; 26.2 µM (inactive)
36. O=c1c2c(no[n+]2[O-])c2ccccc2n1-c1ccccc1; 11.9 µM (inactive)

###

GI50 listing for selected molecules.
- Test system: SNB-75
- measurementNotes: NCI tumour cell line growth inhibition, 48 h
Activity calls are given as the source filed them. Rule as the data show it: active = GI50 up to about 1.1 µM and inactive = higher.
resultType: GI50

1) CN(C)C=O.O=C(Nc1nnn[nH]1)c1nc(O)cc(-c2ccccc2)n1; > 100 µM (inactive)
2) Cc1cc2c([nH]c3ccccc32)c2c1OC(C)(C)C1C3CC(C)(C)Oc4c(C)cc5c6ccccc6n(c5c43)C21 (stereo not given); > 100 µM (inactive)
3) COc1nncc2[nH]c(-c3ccccc3)cc12; 58.1 µM (inactive)
4) CC(C)=CCC/C(C)=C/C=C/C(C)=C/C1C[C@@]2(C(O)O1)[C@H](CCCO)/C(=C(/C)C=O)CC[C@]2(C)O (stereo not given in full); 51.9 µM (inactive)
5) Oc1ccc(-c2c3ccccc3c(-c3ccc(OCCBr)cc3)c3ccccc23)cc1; 25.1 µM (inactive)
6) COC(=O)C(/C(=N/NC(=O)c1ccncc1)C(=O)Nc1ccccc1OC)c1nc2ccc(Cl)cc2nc1O (stereo not given); > 100 µM (inactive)
7) C=C(C(=O)OC)[C@H]1CC/C(C)=C/CC/C(C)=C/CC[C@@]2(C)O[C@@H]2C1; 65.2 µM (inactive)
8) O=C(OC1CCC2OOC1O2)c1ccc([N+](=O)[O-])cc1 (stereo not given); > 100 µM (inactive)
9) COc1ccc2c(c1)OCCCN(C)OC2c1ccccc1 (stereo not given); > 100 µM (inactive)
10) CCCCCCCCCCCCCCCCCCOc1ccc(/C=C/C2=[N+](CCCl)CCO2)cc1; 3.54 µM (inactive)

###

- System: HT-29
- measurementNotes: NCI tumour cell line growth inhibition, 48 h
Activity calls are given as the source filed them. Cut-off read from the data, not from the text of the source: active = GI50 up to about 1.1 µM and inactive = higher.
Classes used: 1.0 (active), 0.0 (inactive)

1. COc1ccc2c(c1)OCCCN(C)OC2c1ccccc1 (centres undefined); 0.0
2. Cc1cc(=O)cc2sc3cc(Cl)ccc3nc1-2; 0.0
3. CN(C)CCCCC1CCN(CC(=O)N2c3ccccc3NC(=O)c3ccccc32)CC1; 0.0
4. c1ccc(CCc2cccnc2)nc1; 0.0
5. CCOC(OC1=C(C#N)CCCC1)C(C)[Se]c1ccccc1 (centres undefined); 0.0
6. COC1(CC[C@@H](C)COC2OC(CO)C(O)C(O)C2O)O[C@H]2C[C@H]3[C@@H]4CC=C5C[C@@H](OC6OC(CO)C(O)C(OC7OC(CO)C(O)C(O)C7O)C6OC6OC(C)C(O)C(O)C6O)CC[C@]5(C)[C@H]4CC[C@]3(C)[C@H]2[C@@H]1C (some centres undefined); 0.0
7. Cc1cc(C)c(-c2no/c(=N\S(=O)(=O)c3ccc(Cl)cc3)o2)c(C)c1; 0.0
8. NC(=S)N/N=C/c1ncccc1N; 0.0
9. CCCCCCCCCCCCCC(=O)OC(/C=C/C(C)C)C(O)C(O)C(OC)C(=O)NC1CCCCNC1=O (centres undefined); 1.0

###

- Test system: ACHN
- measurementNotes: NCI tumour cell line growth inhibition, 48 h
Calls of active or inactive are those of the source. Cut-off read from the data, not from the text of the source: active = GI50 up to about 1.1 µM and inactive = higher. Square brackets hold non-standard residues; d marks the D form. Peptide text beside a SMILES is read from it. * marks the point of attachment. Bn2Val = CC(C)[C@@H](C(=O)*)N(Cc1ccccc1)Cc1ccccc1; NH(3,4-diMeO-benzyl) = COc1ccc(CN*)cc1OC; NMeV = CN[C@H](C(=O)O)C(C)C; dNMeA = CN[C@H](C)C(=O)O
Classes used: y (active), n (inactive)

1) Cc1cnc2cc(Cl)ccc2c1NCCN(CC(C)C)CC(C)C; n
2) Cn1c(=O)nc2n(-c3ccc(Cl)cc3)c(-c3ccccc3)c(-c3ccccc3)nc-2c1=O; n
3) COc1ccc(CNC(=O)[C@@H](C)N(C)C(=O)[C@@H]2CCCN2C(=O)[C@H](C(C)C)N(C)C(=O)[C@@H](NC(=O)[C@H](C(C)C)N(Cc2ccccc2)Cc2ccccc2)C(C)C)cc1OC (Bn2Val-V[NMeV]P[dNMeA]-{NH(3,4-diMeO-benzyl)}); n
4) N#C[BH2-][n+]1cn(C2CC(OP(=O)(O)OCC3OC(n4cnc5c(=O)[nH]c(N)nc54)CC3O)C(CO)O2)c2nc(N)[nH]c(=O)c21 (centres undefined); n
5) C=CC[C@@]12CCC(=O)C=C1CCCC2=O; n
6) COc1cc2c(c3c1c(=O)c1ccccc1n3C)C=CC(C)(C)O2; n
7) O=C1C2Cc3ccccc3CN2C(=O)N1CCN1CCOCC1 (centres undefined); n
8) COc1nc(C)nc2c1ncn2Cc1ccccc1; n
9) CC1CC(N)=C(C#N)C1(C#N)C#N (centres undefined); n
10) CCOC(=O)N1C=NC23C(c4ccccc4)C(c4ccccc4)C12C(=O)N(C)C(=O)N3C (centres undefined); n
11) COC(=O)c1cc2c(c(C(=O)OC)c1O)C(=O)C=CC2=O; n
12) CC(O)[C@@]1(c2ccccc2)CC2(CCN(C)CC2)O[C@H]1C (some centres undefined); n
13) C=C(C)[C@@H]1CC[C@]2(CO)CC[C@]3(C)[C@H](CC[C@@H]4[C@@]5(C)CC[C@H](O)C(C)(C)[C@@H]5CC[C@]43C)[C@@H]12; n
14) CCCCCCCCCCCCCCCCCCOc1ccc(/C=C/C2=[N+](CCCl)CCO2)cc1; n
15) N#C/C(=C/c1cccnc1)C(=O)c1ccccc1; n
16) Cc1cc(=O)cc2sc3cc(Cl)ccc3nc1-2; n
17) CC1CSc2nc3nc(S)nc-3c(O)n2C1 (centres undefined); n
18) COc1ccc2nc3ccccc3c(NCCCCCN(CCCl)CCCl)c2c1; y
19) CCCCCCCCCCCCCC(=O)OC(/C=C/C(C)C)C(O)C(O)C(OC)C(=O)NC1CCCCNC1=O (centres undefined); y
